- Test system: K4 kissing-loop RNA reporter;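 further: bound reporter read as fluorescence of individual clusters on recovered sequencing chips by microscopy, with normalized cluster intensities fitted with a binding model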
- method.notes: apparent KD of K4 kissing-loop reporter; higher = weaker reporter binding
- experimental.setup: Eterna round: R107; input ligand: none
In this section, each of the sequences is paired with its reported apparent KD of K4 kissing-loop reporter.
property.measured: apparent KD of K4 kissing-loop reporter

[
  {
    "sequence": "GAGGAUAGCGGAAGGAGCGAGUAAUGGAGUGAUGUUCCAAUCAAUAAAACACGAUAGAGUGCUCAGGUAGGUCGCCGUGGUGGUU [Exclusion Argiie B GF 13]",
    "value.reported": "165 nM"
  },
  {
    "sequence": "UGACUGGAUGGAAGGAGCGCUAAACUCCUAGUGAUGUUAGGGAUAUGAGGCAAAGCCUUGAAGCAGGUAGGUCGCCAUCUAGUCU [FiskerMod 26 - Jieux - Same State - Arginine B]",
    "value.reported": "146 nM"
  },
  {
    "sequence": "GGUAGCAUGGCGGCCGCCACUUUAUACUCGGUCGUUGGCGUCGUAAGUGAUGUUUACAUUCGCAAAAGGACCGGGCCAUGCUACC",
    "value.reported": "81.2 nM"
  },
  {
    "sequence": "UAUAGAGUGACGGCCGCCACUAUUGUGAUUUAAUUGUUUGAGUGAUGUUUUGAUGUUUGAUUUUGUAGGACCGGGUUAUAUGUUA [zdzzmullin]",
    "value.reported": "987 nM"
  },
  {
    "sequence": "CGCCGAUUGUCGGAGUGAUGUUCCCGGGAUACCAGCACGUCGUCAUGCCCUUGGCAGCCCAACAGACCAUUUUAAAGGCUAGCUG [theeternabot_sameState_KL_Theo_A_35]",
    "value.reported": "122 nM"
  },
  {
    "sequence": "GUAGGAUGAGGAGGAGGAUGAAUUACUGAAGGAGCGCAAAGAAAUGCAGGUAGGUCGCGGUAAAGAAGUAUAGUGAUGUUAUAUC [#08 K4 Arginine A Same State]",
    "value.reported": "463 nM"
  },
  {
    "sequence": "UUGCCUUUGAGCGAUACCAGCAGCGUCGGCCUUAGAUUGGGAGGCAUGGCAAGUGAUGUUUGCCCUUGGCAGCGCGUAUAGUACA [theeternabot_exclusion_KL_Theo_B_7]",
    "value.reported": "459 nM"
  },
  {
    "sequence": "AACGUUUUGAGAAGGAGCGCGAUAAGCAGUGAUGUUGCUAAAAUUCUAUUUCAAUUUAAUACGCAGGUAGGUCGCUCAAUACGUA [JR_SSArginiB_Sub020]",
    "value.reported": "138 nM"
  },
  {
    "sequence": "GCUAUCUGAGCCCAGUGAUGUUGAGUGCUGAAGGAUAUGCGAUAGAGCAGAAGGUCAAGAACAUUGUUCGAUUAUCAAAACAAGU [theeternabot_exclusion_KL_FMN_A_35]",
    "value.reported": "272 nM"
  },
  {
    "sequence": "GAGCCAGAGGUUGCUGCGGGUUUCAGAGAUACCAGCCGUAUUGUAGGCCCUUGGCAGCUCGAGUGAUGUUCGAGCCGCCUCUGGC [Eredorxela]",
    "value.reported": "120 nM"
  },
  {
    "sequence": "ACGAUUUACAGAAGGAGCGUGUAUUUAACUACAAUUAUCAUAGCGAGUGAUGUUCGUUAUACACAGGUAGGUCGCUGUAUAUCGA [JR_ExcArginiB_Sub012]",
    "value.reported": "356 nM"
  },
  {
    "sequence": "AAAUCGUUCAGAAGGAGCGUGAAUUAUUCUUAAUUAUAUUAUACGAGUGAUGUUCGUGUUUCACAGGUAGGUCGCUGAUCGAUAA [JR_SSArginiB_Sub005]",
    "value.reported": "95.6 nM"
  },
  {
    "sequence": "GCGCCGGUCUGCUUUAGAGUGAUGUUCUCCCGAGGACCGGUACGGCCGCCACUCGGCCAACGCUAUUAUCUUUGAUCCGCGGUGC [theeternabot_exclusion_KL_Trp_A_41]",
    "value.reported": "1000 nM"
  },
  {
    "sequence": "CAGCCCAAAUGGCGAGAAGUGUUCCUUAGUCGAGGACCGGUACGGCCGCCACUCGCUCUAAACAUUAGGAGUGAUGUUCCAUUAG",
    "value.reported": "215 nM"
  },
  {
    "sequence": "AAUUAAUACAGAAGGAGCGUGAAAUUAUCUACUUUUAACUUAGCGAGUGAUGUUCGUUUUUCACAGGUAGGUCGCUGUAUAUUUA [JR_ExcArginiB_Sub009]",
    "value.reported": "194 nM"
  },
  {
    "sequence": "GCGCGUCAUGUCAGCGGAGACACUGUCGAUACCAGCGCCGCAAGGCGCCCUUGGCAGCGACGCGCUGGAGUGAUGUUCCAGCGUG [#2 Exclusion - Theophylline A Attempt #15 (HarryS)]",
    "value.reported": "148 nM"
  },
  {
    "sequence": "UGUCAUUGGUCUGAUACCAGUCCCUUGGCAGCCUAAAGGAGUGAUGUUCCAAGGAUACCAGACCCUUGGCAGCAGACCGAUGACU [TheoBS 28 #DoubleAptamer #SwitchBubble]",
    "value.reported": "360 nM"
  },
  {
    "sequence": "ACCUACGAUCACAAAAGUGAUUGUAGGAUCUAGGAUAUGCUGAAAAGCAGAAGGAGAGUGAUGUUCUCAACUCACGAAAGUGAGA [FmnAX 1 #OpenEnded #K4Late]",
    "value.reported": "183 nM"
  },
  {
    "sequence": "UAGAUAAUGUAAGAUUAUGAUAAUUGGGAAGGAGCGCGGAAAUUCGCAGGUAGGUCGCCCUAUAAAGUAGUACGAGUGAUGUUCG [6.)]",
    "value.reported": "281 nM"
  },
  {
    "sequence": "GGAGUAACCUGGGAUACCAGUCGGAGGCCUAGGGAUCGGAGUGAUGUUCUGGGAUGUUUCGGCCCUUGGCAGCUCUGGGUCUCCG [#2 Exclusion - Theophylline B Attempt #2 (HarryS)]",
    "value.reported": "151 nM"
  },
  {
    "sequence": "AGGGACUCUUCGGAGUCCCGGUCAAGGGAUACCAGUGAUGUUGGUCACCCUUGGCAGCCCAGAAACCAAGCCACCAAAGGUGGCA [Omei KL Theo A Exc A v3]",
    "value.reported": "97.3 nM"
  },
  {
    "sequence": "AGACUACCACACUGUCAAUAGACAGUGAGCUAGGAUAUGCUGAUAAGCAGAAGGAGUGAUGUUCCCAGGUAGUCAAUAAAAUAAU [FmnAX 13 G29+C66]",
    "value.reported": "231 nM"
  }
]

Data origin, for the record: the supplement of paper PMC9170038
